Where these numbers come from: paper PMC2582943

# Tested on: SARS-CoV (strain Urbani)
# Test Description: microbe, parasite or virus in culture
# Assay type: cell-based
# Measurement Setup: read-out: Virus yield reduction assay EC90
Peptide text beside a SMILES is read from it.
Can you tell me EC90 for the items I'm about to list?
Give bare numbers, in µM.

Batch: EC90 for all items listed.
1. CN1CCCC1CN1c2ccccc2Sc2ccccc21.Cl (stereo not drawn)
2. OCCCN1c2ccccc2Sc2ccc(Cl)cc21
3. CN1CCN(CCCN2c3ccccc3Sc3ccc(C(F)(F)F)cc32)CC1 [Trifluoperazine dimaleate]
4. CC(C)C[C@H](NC(=O)OCc1ccccc1)C(=O)N[C@@H](CC(C)C)C(=O)N[C@@H](Cc1ccc(O)cc1)C(=O)CF [Calpain Inhibitor IV] (HELM PEPTIDE1{[O=C(OCc1ccccc1)[*:2]].L.L.Y.[FC[*:1]]}$$$$V2.0)
5. CN(C)CCCN1c2ccccc2Sc2ccc(C(F)(F)F)cc21.Cl [Trifluopromazine·HCl]
6. CCOS(=O)(=O)[O-].CC[n+]1c2ccccc2nc2ccccc21 [Phenazine ethosulfate]

1. 16.9
2. 27
3. 10.2
4. 7.2
5. 12.8
6. 6.1
